All values here come from PubChem BioAssay (NCI).

- Test system: CCRF-CEM leukemia
- run_description: NCI-60 one-dose screen, 48 h (100 = growth as untreated, 0 = no growth, -100 = all killed)
- assay_conditions: 10 µM unless noted
- Protocol: Growth inhibition of the CCRF-CEM human tumor cell line is measured as a screen for anti-cancer activity. Cells are grown in 96 well plates and exposed to the test compound for 48 hours. Compounds are tested at a single concentration, which is 10^-5 M for most compounds. The reported endpoint is percent growth (GI% or GIPRCNT), where numbers from 0 - 100% represent growth inhibition, and numbers from -100% - 0 represent cell death. For example, a value of 40 represents 60% growth inhibition. […]
Compounds without any hit were thinned out: in the full panel of roughly 83,000, 20% have a hit.
measure: growth (%)
Quick note: give the figure in %, leave out the unit.

## Input Which measured growth value corresponds to CCC(C)(C)C(=O)O[C@H]1C[C@@H](C)C=C2C=C[C@H](C)[C@H](CC[C@@H]3CC(SCCN)CC(=O)O3)[C@H]21 (some centres undefined) ?
## Output 12.1

## Input Param item: Nc1ncnc2c1c(-c1cccc(Cl)c1)nn2CC(=O)N1CCOCC1
## Output 102

## Input Param item: N=C(N)c1ccc(-c2ccc(-c3ccc(Cl)cc3Cl)s2)cc1
## Output -3.15

## Input Param item: COc1ccc(C(=O)C/C(=C\c2ccc(Cl)cc2)C(=O)NCc2ccccc2)cc1
## Output 73.5

## Input Param item: C=CCn1c(SCC(=O)Nc2ccc(C(=O)/C=C/c3ccc(Cl)cc3)cc2)nnc1-c1ccc(Br)cc1
## Output 79.7

## Input Param item: CCCCCCCCCCCCCCCCOCCCOP(=O)(O)C1CCCN(O)C1=O (centres undefined)
## Output 5.85

## Input Param item: Cn1ccc(=O)c(C(=O)Nc2nsc3ccc([N+](=O)[O-])cc23)c1
## Output 82.7

## Input Param item: COc1ccc(OC)c(-c2nc(SCC(=O)c3ccc(C#N)cc3)[nH]c(=O)c2C#N)c1
## Output 106

## Input Param item: Nc1nc2ccccc2c2c1S(=O)(=O)c1ccc(Cl)cc1C2=O
## Output -10.3
